Several reports have described IC50 for UniProtKB Q9UM73; a selection of those results is presented here.

The cases that follow already have their IC50 on record.
[
  {
    "Compound": "O=C1NC(=O)c2cc3[nH]c(-c4c(NC[C@@H](O)c5cccc(Cl)c5)cc[nH]c4=O)nc3cc21",
    "Assayed system": "UniProtKB Q9UM73",
    "IC50": "5 to 15 µM"
  },
  {
    "Compound": "CN1CCN(CCS(=O)(=O)Nc2ccc(-c3cnc4c(c3)N(C(=O)c3ccccc3)CCN4)cc2)CC1",
    "Assayed system": "UniProtKB Q9UM73",
    "IC50": "10 to 100 µM"
  },
  {
    "Compound": "O=C(c1cnc2c(c1)N(Cc1cc(Cl)ccc1Cl)CCN2)N1CCN(CCc2ccccn2)CC1",
    "Assayed system": "UniProtKB Q9UM73",
    "IC50": "1 to 10 µM"
  }
]

# query: IC50 | item COC(=O)c1c[nH]c2c(=O)[nH]c3ccc(S(=O)(=O)NC4CCCNC4)cc3c12 (stereo not shown) | system: UniProtKB Q9UM73
0.1 to 1 µM

----------
A compilation of pIC50 values for ALK tyrosine kinase receptor (Homo sapiens, UniProt Q9UM73) from the published literature.
pIC50: −log10 of the molar value.

Known pIC50 results, listed for orientation:
[
  {
    "Compound": "O=C(NC1CCc2ccccc21)c1cccc(-c2cnc3c(c2)N(Cc2cc(Cl)ccc2C(F)(F)F)CCN3)c1 (centres unmarked)",
    "pIC50": "6.00 to 7.00"
  },
  {
    "Compound": "CCCN1CCCC(c2ccc(Nc3nc(Nc4ccccc4C(N)=O)c4cc[nH]c4n3)c(OC)c2)C1 (centres unmarked)",
    "pIC50": "9.00 to 9.60"
  },
  {
    "Compound": "CCCN(CCC)[C@@H](C)C(=O)N1CCc2cc(OC)c(Nc3nc(Nc4cccc(F)c4C(N)=O)c4cc[nH]c4n3)cc21",
    "pIC50": "6.70 to 8.30"
  },
  {
    "Compound": "COc1cc2c(cc1Nc1nc(Nc3ccc(F)c(F)c3C(=O)NC(C)C)c3cc[nH]c3n1)N(C(=O)CN(C)C)CCC2",
    "pIC50": "8.40 to 8.90"
  },
  {
    "Compound": "Cc1ccc(OCC(O)CNc2ccnc(O)c2-c2nc3cc4c(cc3[nH]2)C(=O)N(CCCn2cccn2)C4=O)c(C)c1 (centres unmarked)",
    "pIC50": "5.30 to 6.30"
  },
  {
    "Compound": "O=C(NC1CCN(Cc2ccccc2)CC1)c1cnc2c(c1)N(Cc1cc(Cl)ccc1Cl)CCN2",
    "pIC50": "5.00 to 6.00"
  },
  {
    "Compound": "Cc1cc(-c2nc3[nH]nc(-c4cccs4)c3c(-c3ccc(N4CCNCC4)cc3)c2C#N)c(F)cc1O",
    "pIC50": "> 7.00"
  },
  {
    "Compound": "CN1CCC(N2C(=O)c3cc4nc(-c5c(NC[C@@H](O)COc6cccc(OC(F)(F)C(F)F)c6)cc[nH]c5=O)[nH]c4cc3C2=O)CC1",
    "pIC50": "5.30 to 6.30"
  },
  {
    "Compound": "CCCN1CCC=C(c2ccc(Nc3nc(Nc4ccccc4C(=O)NC)c4cc[nH]c4n3)c(OC)c2)C1",
    "pIC50": "9.00 to 9.60"
  },
  {
    "Compound": "Cc1cc(-c2nc3[nH]nc(N)c3c(-c3ccc(N4CCNCC4)cc3)c2C#N)ccc1O",
    "pIC50": "> 7.00"
  }
]

Request body: readout pIC50, system ALK tyrosine kinase receptor (Homo sapiens, UniProt Q9UM73), query Cc1ccc(OCC(O)CNc2cc[nH]c(=O)c2-c2nc3cc4c(cc3[nH]2)C(=O)N(C2CCN(C)CC2)C4=O)c(C)c1 (centres unmarked) . Return the value.
4.82 to 5.30

Give recorded pIC50 with ALK tyrosine kinase receptor (Homo sapiens, UniProt Q9UM73) for the following compound: COc1cc2c(cc1Nc1nc(Nc3cccc4c3C(=O)NC4)c3cc[nH]c3n1)N(C(=O)CN(C)C)CC2
8.40 to 8.90

Lab note: need pIC50 with ALK tyrosine kinase receptor (Homo sapiens, UniProt Q9UM73) for entry CN1CCC(N2C(=O)c3cc4nc(-c5c(NC[C@@H](O)COc6cccc(C#N)c6)ccnc5O)[nH]c4cc3C2=O)CC1 , please look it up.
5.30 to 6.30

Record lookup: for ALK tyrosine kinase receptor (Homo sapiens, UniProt Q9UM73), what pIC50 belongs to O=C1c2cc3nc(-c4c(NC[C@@H](O)c5cccc(Cl)c5)cc[nH]c4=O)[nH]c3cc2C(=O)N1CCc1cccnc1 ?
< 4.82

----------
pIC50: −log10 of the molar value.
pIC50 values for ALK tyrosine kinase receptor (Homo sapiens, UniProt Q9UM73), compiled from several publications.

Known results for compounds:
[
  {
    "Smi": "CCOC(=O)c1c[nH]c2c(=O)[nH]c3ccc(S(=O)(=O)NCCCN(C)C)cc3c12",
    "pIC50": "4.00 to 5.00"
  },
  {
    "Smi": "N#Cc1c(-c2ccc(CO)cc2)nc2[nH]nc(-c3ccc(C(F)(F)F)cc3)c2c1-c1ccc(N2CCNCC2)cc1",
    "pIC50": "5.00 to 6.00"
  },
  {
    "Smi": "CCNC(=O)c1c(F)cccc1Nc1nc(Nc2cc3c(cc2OC)CCN3C(=O)CN(C)C)nc2[nH]ccc12",
    "pIC50": "9.00 to 9.60"
  }
]

We now examine a further compound.
Quick check: pIC50 on ALK tyrosine kinase receptor (Homo sapiens, UniProt Q9UM73), item O=C(NCc1ccccc1)c1ccc(-c2cnc3c(c2)N(Cc2cc(Cl)ccc2C(F)(F)F)CCN3)cc1 ?
6.00 to 7.00

----------
Multi-source literature compilation: IC50 on ALK tyrosine kinase receptor (Homo sapiens, UniProt Q9UM73).

[
  {
    "Compound": "COc1cc(N2CCOCC2)ccc1Nc1nc(Nc2ccccc2C(N)=O)c2cc[nH]c2n1",
    "Assayed system": "ALK tyrosine kinase receptor (Homo sapiens, UniProt Q9UM73)",
    "Recorded measurement": "0.251 to 1 nM"
  },
  {
    "Compound": "COc1cc(F)ccc1OC[C@@H](O)CNc1ccnc(O)c1-c1nc2cc3c(cc2[nH]1)C(=O)N(C1CCN(C)CC1)C3=O",
    "Assayed system": "ALK tyrosine kinase receptor (Homo sapiens, UniProt Q9UM73)",
    "Recorded measurement": "500 to 5000 nM"
  },
  {
    "Compound": "CN(C)CCCNC(=O)c1ccc(-c2cnc3c(c2)N(C(=O)c2ccccc2)CCN3)cc1",
    "Assayed system": "ALK tyrosine kinase receptor (Homo sapiens, UniProt Q9UM73)",
    "Recorded measurement": "> 100000 nM"
  },
  {
    "Compound": "O=C(NCc1cc(C(F)(F)F)cc(C(F)(F)F)c1)c1ccc(-c2cnc3c(c2)N(Cc2cc(Cl)ccc2C(F)(F)F)CCN3)cc1",
    "Assayed system": "ALK tyrosine kinase receptor (Homo sapiens, UniProt Q9UM73)",
    "Recorded measurement": "100 to 1000 nM"
  },
  {
    "Compound": "Cc1cc(-c2nc3[nH]nc(-c4ccco4)c3c(-c3ccc(N4CCNCC4)cc3)c2C#N)ccc1O",
    "Assayed system": "ALK tyrosine kinase receptor (Homo sapiens, UniProt Q9UM73)",
    "Recorded measurement": "< 100 nM"
  },
  {
    "Compound": "NCC#Cc1cnc2c(c1)N(Cc1cc(Cl)ccc1Cl)CCN2",
    "Assayed system": "ALK tyrosine kinase receptor (Homo sapiens, UniProt Q9UM73)",
    "Recorded measurement": "100 to 1000 nM"
  },
  {
    "Compound": "CC(=O)c1ccc(F)cc1OC1CCNc2ncc(-c3ccc(C(=O)N4CCN(C)CC4)cc3)cc21 (centres unmarked)",
    "Assayed system": "ALK tyrosine kinase receptor (Homo sapiens, UniProt Q9UM73)",
    "Recorded measurement": "10000 to 100000 nM"
  }
]

Need IC50 of CNC(=O)c1ccccc1Nc1nc(Nc2ccc(C3CCCN(C)C3)cc2OC)nc2[nH]ccc12 (centres unmarked) , thanks.
0.251 to 1 nM

----------
Compiled notes: published IC50 values involving ALK tyrosine kinase receptor (Homo sapiens, UniProt Q9UM73).

Examples from the recorded data:
[
  {
    "Smi": "Cc1ccc(OC[C@H](O)CNc2cc[nH]c(=O)c2-c2nc3cc4c(cc3[nH]2)C(=O)N(C2CCN(C)CC2)C4=O)c(C(C)(C)C)c1",
    "IC50": "500 to 5000 nM"
  },
  {
    "Smi": "Cc1c(Cl)cccc1OC[C@H](O)CNc1cc[nH]c(=O)c1-c1nc2cc3c(cc2[nH]1)C(=O)N(C1CCN(C)CC1)C3=O",
    "IC50": "500 to 5000 nM"
  },
  {
    "Smi": "CC(C)NC(=O)CN1CCN(C(=O)c2cccc(-c3cnc4c(c3)N(Cc3cc(Cl)ccc3C(F)(F)F)CCN4)c2)CC1",
    "IC50": "100 to 1000 nM"
  },
  {
    "Smi": "COc1cc(C2CCN(C(C)C)CC2)ccc1Nc1nc(Nc2cc(F)c(F)cc2C(N)=O)c2cc[nH]c2n1",
    "IC50": "0.251 to 1 nM"
  }
]

What value of IC50 has been reported for the following compound? COc1cc2c(cc1Nc1nc(Nc3cccc(F)c3C(N)=O)c3cc[nH]c3n1)N(C(=O)CCN(C)C)CCC2
5.01 to 200 nM

Sample Cc1ccc(OC[C@H](O)CNc2cc[nH]c(=O)c2-c2nc3cc4c(cc3[nH]2)C(=O)N(C2CCN(C)CC2)C4=O)c(C)c1 — what was its IC50?
500 to 5000 nM

Quick check: IC50 of COc1cc2c(cc1Nc1nc(Nc3cccc(F)c3C(N)=O)c3cc[nH]c3n1)N(CCN(C)C)CC2 ?
5.01 to 200 nM

Look up IC50 for this compound: CC(C)(C)OC(=O)N1CC=C(c2cnc3c(c2)N(Cc2cc(Cl)ccc2Cl)CCN3)CC1
1000 to 10000 nM

Recorded IC50 of O=C(O)c1cncc(-c2cnc3c(c2)N(Cc2cc(F)ccc2F)CCN3)c1 , please.
10000 to 100000 nM
